# Measurement Notes: SK-BR-3 cell growth inhibitors, pilot screen, 24 h, human (AID 572);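 note: compound exposure lasted between 18 and 24 h rather than exactly 24 h; 100% = carrier-treated control wells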
# Cond: SK-BR-3 viability, CellTiter-Glo luminescence, at 10 µM, hits give low values
Reported Property: viability (%)

• COc1ccc(-c2cc(C(F)(F)F)n3nc(C(=O)N4CCOCC4)nc3n2)cc1 = 88
• Cc1cc(NC(=O)CSc2ccc3nnc(-c4cccc(F)c4)n3n2)no1 = 108
• CCOc1ncccc1C(=O)OCC(=O)N1CC(=O)Nc2ccccc21 = 87
• O=C(NCCCCNC(=O)c1c(F)c(F)c(F)c(F)c1F)c1c(F)c(F)c(F)c(F)c1F = 98.5
• Cc1ccccc1CSCC(=O)c1c(N)n(C)c(=O)n(C)c1=O = 86.5
• CCN(CCNC(=O)C1CCN(S(=O)(=O)CC)CC1)c1ccccc1 = 124
• COc1ccccc1NC(=O)C(O)C(O)C(=O)Nc1ccccc1OC (stereo not drawn) = 111
• Cc1ccc(N2CC(C(=O)N3CCN(C(=O)c4ccco4)CC3)CC2=O)cc1 (stereo not drawn) = 96.5
• Cc1ccccc1NC(=O)C1Cc2ccccc2C(=O)O1 (stereo not drawn) = 134
• O=C(COc1ccc(F)cc1Br)N1CCc2ccccc21 = 97.5
• O=C(CN1C(=O)c2cccc3cccc1c23)NCC1CCCO1 (stereo not drawn) = 104
• Cc1cccc(N2C(=O)CC(N3CCN(Cc4ccc(Cl)cc4)CC3)C2=O)c1 (stereo not drawn) = 104
• CN1CCN(CCCNC(=O)C2CC(=O)N(C3CCCCC3)C2)CC1 (stereo not drawn) = 106
• COc1ccc(CCNC(=O)C2CCN(Cc3nc(-c4cccc(Cl)c4)oc3C)CC2)cc1OC = 83.5
• COc1ccccc1OCCCCNCCO = 95.5
• COc1ccc(C)cc1NCc1cccc(OC)c1OC = 75.5
• O=C(c1ccco1)N1CCN(C(=O)C2CCN(S(=O)(=O)c3cccc4nsnc34)CC2)CC1 = 98.5
• Cc1ccc(S(=O)(=O)N2CCC(C(=O)N[C@@H](Cc3ccccc3)C(=O)O)CC2)cc1 = 104
• N#Cc1cn(CC(=O)N2CCCC2)c2ccccc12 = 118
• O=C(C1CCCO1)N1CCN(Cc2nc3ccccc3c(=O)[nH]2)CC1 (stereo not drawn) = 91.5
• COc1ccc(NC(=O)Nc2ccc(C)cc2OC(F)F)cc1OC = 95
• COC(=O)c1cc(Br)c(=O)n(CCN2CCOCC2)c1 = 102
• COCCNC(=O)C(C)OC(=O)c1nsc(Cl)c1Cl (stereo not drawn) = 103

These measurements were taken from PubChem BioAssay.
